Target: Beta-3 adrenergic receptor (Homo sapiens)
Sequence (P13945 whole entry): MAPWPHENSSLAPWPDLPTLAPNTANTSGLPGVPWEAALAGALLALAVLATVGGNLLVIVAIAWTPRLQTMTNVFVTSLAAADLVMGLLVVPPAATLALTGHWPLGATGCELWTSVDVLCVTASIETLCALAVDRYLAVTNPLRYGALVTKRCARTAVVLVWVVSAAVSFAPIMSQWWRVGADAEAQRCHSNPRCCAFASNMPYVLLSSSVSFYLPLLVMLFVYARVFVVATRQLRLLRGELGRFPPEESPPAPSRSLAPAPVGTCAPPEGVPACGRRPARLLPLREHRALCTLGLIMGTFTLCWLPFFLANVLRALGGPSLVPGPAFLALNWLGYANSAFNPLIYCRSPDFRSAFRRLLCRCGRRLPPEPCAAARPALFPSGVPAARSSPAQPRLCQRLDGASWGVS
Experiment: DRUGMATRIX: Adrenergic beta3 radioligand binding (ligand: [125I] Cyanopindolol)
Type: cell membranes, HEK293, Membrane
Conditions: Not Active = under 50% inhibition at 10 µM; read-out: Ki
property: pKi
Please keep in mind that pKi is minus log10 of the molar concentration; only the number is needed.

INPUT: Report measured pKi; entry is Cc1c(O)cccc1C(=O)N[C@@H](CSc1ccccc1)[C@H](O)CN1C[C@H]2CCCC[C@H]2C[C@H]1C(=O)NC(C)(C)C
OUTPUT: 4.59

INPUT: Report measured pKi; entry is CC(C)C[C@H]1C(=O)N2CCC[C@H]2[C@]2(O)O[C@](NC(=O)[C@@H]3C=C4c5cccc6[nH]cc(c56)C[C@H]4N(C)C3)(C(C)C)C(=O)N12
OUTPUT: 5.73

INPUT: Report measured pKi; entry is CCOc1nc2cccc(C(=O)O)c2n1Cc1ccc(-c2ccccc2-c2nnn[nH]2)cc1
OUTPUT: 5.49

INPUT: Report measured pKi; entry is Clc1ccc(COC(Cn2ccnc2)c2ccc(Cl)cc2Cl)c(Cl)c1 (centres undefined)
OUTPUT: 5.39

----------
Target: Delta-type opioid receptor (Homo sapiens); note: in other assays of this panel Not Active means under 50% inhibition at 10 µM
Sequence (P41143 whole entry): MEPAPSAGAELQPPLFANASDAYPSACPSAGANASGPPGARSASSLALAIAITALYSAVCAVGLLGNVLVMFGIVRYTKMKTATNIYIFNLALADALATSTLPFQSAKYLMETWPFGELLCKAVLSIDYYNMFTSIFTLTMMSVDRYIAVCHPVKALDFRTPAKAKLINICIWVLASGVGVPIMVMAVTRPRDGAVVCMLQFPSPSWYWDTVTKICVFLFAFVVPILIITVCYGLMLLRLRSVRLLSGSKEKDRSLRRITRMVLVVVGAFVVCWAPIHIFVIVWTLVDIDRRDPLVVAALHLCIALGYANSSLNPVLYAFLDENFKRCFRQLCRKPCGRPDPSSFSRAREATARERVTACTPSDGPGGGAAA
Assay type: cell membranes, HEK293, Membrane
Conditions: read-out: IC50
property: pIC50
Please keep in mind that pIC50 is minus log10 of the molar concentration; only the number is needed.

INPUT: Report measured pIC50; entry is Clc1ccc(COC(Cn2ccnc2)c2ccc(Cl)cc2Cl)c(Cl)c1 (configuration not stated)
OUTPUT: 5.47

INPUT: Report measured pIC50; entry is Cc1c(O)cccc1C(=O)N[C@@H](CSc1ccccc1)[C@H](O)CN1C[C@H]2CCCC[C@H]2C[C@H]1C(=O)NC(C)(C)C
OUTPUT: 4.18

----------
Target: Substance-K receptor (Homo sapiens, UniProt P21452); note: in other assays of this panel Not Active means under 50% inhibition at 10 µM
Sequence (P21452 whole entry): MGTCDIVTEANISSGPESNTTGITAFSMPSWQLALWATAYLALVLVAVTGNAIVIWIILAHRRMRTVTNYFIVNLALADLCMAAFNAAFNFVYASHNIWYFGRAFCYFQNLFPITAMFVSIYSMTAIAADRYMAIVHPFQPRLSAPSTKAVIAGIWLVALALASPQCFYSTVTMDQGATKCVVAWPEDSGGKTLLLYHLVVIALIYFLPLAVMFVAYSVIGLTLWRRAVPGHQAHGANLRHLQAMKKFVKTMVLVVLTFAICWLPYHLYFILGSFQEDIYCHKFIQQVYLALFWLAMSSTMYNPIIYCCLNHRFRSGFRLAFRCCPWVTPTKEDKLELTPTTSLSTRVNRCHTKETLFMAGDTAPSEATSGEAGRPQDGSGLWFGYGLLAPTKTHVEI
Type: cell membranes, CHO, Membrane
Settings: cho
property: IC50

substance: COLISTIN
result: Not Active
//
substance: TRANSPLATIN
result: Not Active
//
substance: COBALTOUS CHLORIDE
result: Not Active
//
substance: ZIRCONIUM(IV) CHLORIDE
result: Not Active

----------
Test: DRUGMATRIX: Imidazoline I2, Central radioligand binding (ligand: [3H] Idazoxan)
Format: cell membranes, Rattus norvegicus, Wistar, Cerebral cortex, Membrane
Details: Not Active = under 50% inhibition at 10 µM
property: Ki

Worked examples follow.
compound: NC12CC3CC(CC(C3)C1)C2 [AMANTADINE]
Ki: Not Active
//
compound: C[N+](C)(C)CCOC(=O)CCC(=O)OCC[N+](C)(C)C.[Cl-].[Cl-] [SUCCINYLCHOLINE CHLORIDE]
Ki: Not Active
//
compound: O=C1C[C@@H]2OCC=C3CN4CC[C@]56c7ccccc7N1[C@H]5[C@H]2[C@H]3C[C@H]46 [STRYCHNINE]
Ki: Not Active
//
compound: CC[C@]1(O)C[C@@H]2CN(CCc3c([nH]c4ccccc34)[C@@](C(=O)OC)(c3cc4c(cc3OC)N(C)[C@H]3[C@@](O)(C(N)=O)[C@H](O)[C@]5(CC)C=CCN6CC[C@]43[C@@H]65)C2)C1 [VINDESINE]
Ki: Not Active
//
compound: CCCCC1=NC2(CCCC2)C(=O)N1Cc1ccc(-c2ccccc2-c2nnn[nH]2)cc1 [IRBESARTAN]
Ki: Not Active

INPUT: Report measured Ki; entry is O=C(O)CC(O)(CC(=O)O)C(=O)O [CITRIC ACID]
OUTPUT: Not Active

INPUT: Report measured Ki; entry is CN1C[C@@H]2C[C@H]1CN2c1cc2c(cc1F)c(=O)c(C(=O)O)cn2C1CC1 [DANOFLOXACIN]
OUTPUT: Not Active

----------
Molecular target: 5-hydroxytryptamine receptor 4 (Cavia porcellus, UniProt O70528); note: in other assays of this panel Not Active means under 50% inhibition at 10 µM
Sequence (O70528 whole entry): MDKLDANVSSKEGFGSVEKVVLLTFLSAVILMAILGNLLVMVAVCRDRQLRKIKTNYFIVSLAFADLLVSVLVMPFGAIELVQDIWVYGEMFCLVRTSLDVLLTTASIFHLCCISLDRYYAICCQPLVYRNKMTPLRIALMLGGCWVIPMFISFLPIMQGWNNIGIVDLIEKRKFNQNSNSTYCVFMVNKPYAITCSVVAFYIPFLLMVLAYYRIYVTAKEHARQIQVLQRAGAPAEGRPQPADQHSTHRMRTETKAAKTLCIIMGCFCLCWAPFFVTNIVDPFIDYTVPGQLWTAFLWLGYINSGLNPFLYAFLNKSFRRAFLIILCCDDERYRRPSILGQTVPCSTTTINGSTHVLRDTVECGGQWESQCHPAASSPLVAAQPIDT
Type: cell membranes, Dunkin-Hartley, Striatum, Membrane
Conditions: read-out: IC50
property: IC50 (µM)
Numeric only. Scale: µM

INPUT: Report measured IC50; entry is C[S+]([O-])c1ccc(-c2nc(-c3ccncc3)c(-c3ccc(F)cc3)[nH]2)cc1 (stereo unspecified) [SB-203580]
OUTPUT: 10.6

----------
Target: UniProtKB P28335
Sequence (P28335 whole entry): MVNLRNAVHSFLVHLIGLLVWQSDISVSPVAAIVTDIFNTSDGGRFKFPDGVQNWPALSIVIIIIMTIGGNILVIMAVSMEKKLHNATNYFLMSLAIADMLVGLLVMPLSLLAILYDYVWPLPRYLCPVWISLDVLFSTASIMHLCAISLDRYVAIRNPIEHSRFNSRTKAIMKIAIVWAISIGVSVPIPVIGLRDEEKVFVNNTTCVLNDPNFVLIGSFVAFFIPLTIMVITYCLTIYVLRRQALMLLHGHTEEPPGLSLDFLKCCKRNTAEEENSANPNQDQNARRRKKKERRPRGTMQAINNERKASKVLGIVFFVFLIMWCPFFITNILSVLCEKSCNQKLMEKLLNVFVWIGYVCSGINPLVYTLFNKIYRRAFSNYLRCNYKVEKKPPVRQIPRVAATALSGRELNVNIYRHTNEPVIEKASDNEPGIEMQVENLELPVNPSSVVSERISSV
Assay: DRUGMATRIX: Serotonin (5-Hydroxytryptamine) 5-HT2C radioligand binding (ligand: [3H] Mesulergine)
Format: cell membranes, CHO-K1, Membrane
Settings: Not Active = under 50% inhibition at 10 µM; read-out: Ki
Can you tell me Ki for the items I'm about to list?
Numeric only. Scale: nM

INPUT: Report measured Ki; entry is N=C(N)c1ccc(OCCCCCOc2ccc(C(=N)N)cc2)cc1
OUTPUT: 1720

INPUT: Report measured Ki; entry is CN(C)CCC=C1c2ccccc2CCc2ccccc21
OUTPUT: 3.17

INPUT: Report measured Ki; entry is CN1CCN(C(c2ccccc2)c2ccccc2)CC1
OUTPUT: 535

INPUT: Report measured Ki; entry is CN1[C@@H]2CC[C@H]1C[C@@H](OC(c1ccccc1)c1ccccc1)C2
OUTPUT: 32

INPUT: Report measured Ki; entry is CN1CCC(=C2c3ccccc3CC(=O)c3sccc32)CC1
OUTPUT: 84

----------
Target: Cytochrome P450 1A2 (Homo sapiens, UniProt P05177); note: in other assays of this panel Not Active means under 50% inhibition at 10 µM
Sequence (P05177 whole entry): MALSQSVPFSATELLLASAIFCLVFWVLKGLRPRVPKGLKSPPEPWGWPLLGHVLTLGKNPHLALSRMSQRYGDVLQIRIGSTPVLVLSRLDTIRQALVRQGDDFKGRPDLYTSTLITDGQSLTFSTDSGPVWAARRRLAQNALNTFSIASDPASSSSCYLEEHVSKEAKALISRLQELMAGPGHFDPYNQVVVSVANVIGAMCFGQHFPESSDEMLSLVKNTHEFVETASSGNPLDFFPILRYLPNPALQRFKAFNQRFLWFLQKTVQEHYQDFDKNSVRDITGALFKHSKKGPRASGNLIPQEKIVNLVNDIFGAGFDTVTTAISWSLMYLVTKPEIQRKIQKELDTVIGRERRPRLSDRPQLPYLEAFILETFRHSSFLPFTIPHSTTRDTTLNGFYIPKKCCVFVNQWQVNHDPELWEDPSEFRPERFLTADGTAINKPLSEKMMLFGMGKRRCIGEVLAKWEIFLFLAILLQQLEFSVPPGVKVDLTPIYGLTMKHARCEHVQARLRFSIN
Conditions: bti-tn-5b1-4

substance: TRANSPLATIN
assayed-target: Cytochrome P450 1A2 (Homo sapiens, UniProt P05177); note: in other assays of this panel Not Active means under 50% inhibition at 10 µM
IC50: Not Active
--
substance: ZIRCONIUM(IV) CHLORIDE
assayed-target: Cytochrome P450 1A2 (Homo sapiens, UniProt P05177); note: in other assays of this panel Not Active means under 50% inhibition at 10 µM
IC50: Not Active
--
substance: COBALTOUS CHLORIDE
assayed-target: Cytochrome P450 1A2 (Homo sapiens, UniProt P05177); note: in other assays of this panel Not Active means under 50% inhibition at 10 µM
IC50: Not Active
--
substance: COLISTIN
assayed-target: Cytochrome P450 1A2 (Homo sapiens, UniProt P05177); note: in other assays of this panel Not Active means under 50% inhibition at 10 µM
IC50: Not Active

----------
Molecular target: Kappa-type opioid receptor (Homo sapiens, UniProt P41145)
Sequence (P41145 whole entry): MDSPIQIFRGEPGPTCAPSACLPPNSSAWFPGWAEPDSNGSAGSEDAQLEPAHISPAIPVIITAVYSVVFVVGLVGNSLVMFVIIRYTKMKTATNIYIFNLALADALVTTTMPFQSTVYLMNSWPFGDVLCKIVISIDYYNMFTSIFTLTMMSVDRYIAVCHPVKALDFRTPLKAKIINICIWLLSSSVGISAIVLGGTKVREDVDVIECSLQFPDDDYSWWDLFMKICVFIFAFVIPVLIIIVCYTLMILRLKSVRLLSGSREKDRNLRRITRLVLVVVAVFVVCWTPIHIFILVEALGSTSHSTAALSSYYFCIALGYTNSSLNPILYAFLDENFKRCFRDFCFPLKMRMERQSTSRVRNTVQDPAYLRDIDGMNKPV
Experiment: DRUGMATRIX: Opiate kappa (OP2, KOP) radioligand binding (ligand: [3H] Diprenorphine)
Type: cell membranes, HEK293, Membrane
Settings: hek293; Not Active = under 50% inhibition at 10 µM
property: IC50

Worked examples follow.
compound: C[C@H]1O[C@H](O[C@H]2[C@H](O)[C@@H](O)[C@@H](O[C@H]3[C@H](O)[C@@H](O)C(O)O[C@@H]3CO)O[C@@H]2CO)[C@H](O)[C@@H](O)[C@@H]1N[C@H]1C=C(CO)[C@@H](O)[C@H](O)[C@H]1O (some centres undefined) [ACARBOSE]
result: Not Active
--
compound: CC(C)c1c(C(=O)Nc2ccccc2)c(-c2ccccc2)c(-c2ccc(F)cc2)n1CC[C@@H](O)C[C@@H](O)CC(=O)O [ATORVASTATIN]
result: Not Active
--
compound: CC(C)NC[C@H](O)COc1cccc2ccccc12 [LEVOPROPRANOLOL]
result: Not Active
--
compound: CN(C)CCC=C1c2ccccc2CCc2ccccc21 [AMITRIPTYLINE]
result: Not Active
--
compound: CNC1=Nc2ccc(Cl)cc2C(c2ccccc2)=[N+]([O-])C1 [CHLORDIAZEPOXIDE]
result: Not Active

INPUT: Report measured IC50; entry is O=C(c1ccccc1F)N1CCC(Cc2ccccc2)CC1
OUTPUT: Not Active

INPUT: Report measured IC50; entry is NCCCNCCSP(=O)(O)O [AMIFOSTINE]
OUTPUT: Not Active

INPUT: Report measured IC50; entry is CCCCCCCCNC(C)C(O)c1ccc(SC(C)C)cc1 (centres undefined) [SULOCTIDIL]
OUTPUT: Not Active

INPUT: Report measured IC50; entry is CCN(C(C)=O)c1cccc(-c2ccnc3c(C#N)cnn23)c1 [ZALEPLON]
OUTPUT: Not Active
